assay: qHTS for Inhibitors of human tyrosyl-DNA phosphodiesterase 1 (TDP1): qHTS in cells in presence of CPT; conditions: chicken DT40 Tdp1-/-;hTDP1 cells + 20 nM CPT, ATP luminescence, 48 h; series mostly up to 46.2 µM; further: nearly all actives have a fitted effect of over 55% in size
The campaign covered roughly 420,000 compounds. About 50,000 (12%) were called active. About 26% were inconclusive and are not listed. The call rests on the fitted dose curve; in most records, active means well fitted inhibition curve with a large enough effect; inconclusive means small, poorly fitted or top-dose-only effect; inactive means flat fitted curve, though single readings scatter. What follows is part of a selection rich in actives, with near analogues and random picks from the rest.
Outcome field: choose from active, inactive

Illustrative cases are given below, each with its answer.
{"columns": ["Molecule", "Label"],
 "data": [
  ["O=C(NCc1ccc(F)cc1)c1cc(C2CCCCN2C(=O)C2CCCCC2)on1 (stereo unspecified)", "active"],
  ["O=C(NCc1ccccc1Cl)C1CCN(S(=O)(=O)c2cccc3nonc23)CC1", "inactive"],
  ["CCCNC(=O)c1cc(C2CCCCN2C(=O)OC)on1 (stereo unspecified)", "inactive"]
]}

Field: outcome | Entry: CSCCC(NS(=O)(=O)c1ccc(C)cc1)C(=O)N1CCCC1 (stereo unspecified) inactive

Follow-up item: CC1(C)C(c2cccs2)=[N+]([O-])C2(CCCCC2=O)N1O (stereo unspecified) inactive

Follow-up item: O=C(COC(=O)CCCN1C(=O)c2cccc3cccc(c23)C1=O)NC1CCS(=O)(=O)C1 (stereo unspecified) inactive

Follow-up item: Cc1ccc(CNC(=O)CCNS(=O)(=O)c2cccc3nonc23)cc1 inactive

Follow-up item: CC(C)(C)C(=O)COC(=O)c1cc(S(=O)(=O)N2CCCCC2)ccc1N1CCOCC1 inactive

====

test: qHTS for Inhibitors of human tyrosyl-DNA phosphodiesterase 1 (TDP1): qHTS in cells in presence of CPT; settings: chicken DT40 Tdp1-/-;hTDP1 cells + 20 nM CPT, ATP luminescence, 48 h; series mostly up to 46.2 µM; further: nearly all actives have a fitted effect of over 55% in size
The whole screen tested about 420,000 compounds, of which about 50,000 (12%) were called active. About 26% were inconclusive and are not listed. Calls come from the whole dose curve; as a rule, active = well fitted inhibition curve with a large enough effect; inconclusive = small, poorly fitted or top-dose-only effect; inactive = flat fitted curve, though single readings scatter. The full list was thinned out, with actives kept by preference.
Outcome field: choose from 1 (active), 0 (inactive)

Illustrative cases are given below, each with its answer.
{"columns": ["Molecule", "Label"],
 "data": [
  ["CC(NC(=O)c1cc(=O)[nH]c2ccccc12)c1ccc(F)cc1F (configuration not stated)", 0],
  ["O=C(COC(=O)/C=C/c1ccc(Br)o1)Nc1cccc(S(=O)(=O)N2CCOCC2)c1", 0],
  ["COc1ccccc1NC(=O)COC(=O)COc1ccccc1F", 0],
  ["CC(C)NC(=S)Nc1cccc2cnccc12", 0],
  ["C=C(C)c1cccc(C(C)(C)NC(=O)NCCN(CC)CC)c1", 0]
]}

Field: outcome | Entry: CCOc1ncccc1C(=O)Nc1ccc(S(=O)(=O)Nc2nc(C)cc(C)n2)cc1 0

Follow-up item: CCn1c(O)c2ccc(C(=O)N=NC(=O)c3cccnc3)cc2c1O 0

Follow-up item: COC(=O)c1c(C)[nH]c(C(=O)NCCc2ccc(S(N)(=O)=O)cc2)c1C 0

Follow-up item: COc1ccc(C2CC(c3cccs3)=NN2C(=O)COC(=O)c2cc3ccccc3cc2O)cc1OC (configuration not stated) 0

Follow-up item: Nc1nc(-c2ccccc2)cc(-c2ccccc2)n1 1

====

test: qHTS for Inhibitors of human tyrosyl-DNA phosphodiesterase 1 (TDP1): qHTS in cells in presence of CPT; details: chicken DT40 Tdp1-/-;hTDP1 cells + 20 nM CPT, ATP luminescence, 48 h; series mostly up to 46.2 µM; further: nearly all actives have a fitted effect of over 55% in size
The campaign covered roughly 420,000 compounds. About 50,000 (12%) were called active. Roughly 26% stayed inconclusive and do not appear here. The call rests on the fitted dose curve; in most records, active means well fitted inhibition curve with a large enough effect; inconclusive means small, poorly fitted or top-dose-only effect; inactive means flat fitted curve, though single readings scatter. For the sample, actives were picked, then their nearest neighbours and some compounds at random.
Outcome field: choose from active, inactive

{"columns": ["Molecule", "Label"],
 "data": [
  ["COc1ccc(S(=O)(=O)N2CCOCC2)cc1NC(=O)CC1CC2CCC1C2 (stereo not given)", "inactive"],
  ["CCOC(=O)c1c(S(=O)(=O)N2CCCC(C(=O)NCc3cccc(C)c3)C2)c(C)n(C)c1C (stereo not given)", "inactive"],
  ["Cc1ccc(S(=O)(=O)N2CCN(C(=O)c3ccc(-n4cncn4)c([N+](=O)[O-])c3)CC2)cc1", "inactive"],
  ["O=C(c1ccc(S(=O)(=O)N2CCOCC2)cc1)N1CCN(c2ccccc2)CC1", "inactive"],
  ["O=c1[nH]c(/C=C\\c2cccc(C(F)(F)F)c2)nc(O)c1[N+](=O)[O-]", "inactive"]
]}

Field: outcome | Entry: Cc1ccnc(NS(=O)(=O)c2ccc(NC(=O)c3oc4ccccc4c3C)cc2)n1 inactive

Follow-up item: COc1ccccc1NS(=O)(=O)c1ccc(C(=O)N2CCN(c3ccccc3O)CC2)cc1 active

Follow-up item: O=C(c1ccc(S(=O)(=O)c2ccccc2)cc1)N1CCCCCC1 inactive

Follow-up item: O=C1OC(Oc2ccc(Br)cc2)(c2ccccc2)c2ccccc21 (stereo not given) inactive

Follow-up item: COc1ccc(S(=O)(=O)Nc2ccccc2C(=O)N2CCCC2)cc1C inactive
